All values here come from ChEMBL document CHEMBL1201862.

# maps each entry to its GI50
tested on: OVCAR-4; experiment: NCI tumour cell line growth inhibition, 48 h
Active and inactive are the calls of the source. Rule as the data show it: active = GI50 up to about 1.1 µM and inactive = higher.

{"columns": ["compound", "observed property", "result"],
 "data": [
  ["CC(=O)O[C@H]1C(=O)[C@@]2(C)[C@H]([C@H](OC(=O)C3CCCCC3)[C@]3(O)C[C@H](OC(=O)[C@H](O)[C@@H](NC(=O)OC(C)(C)C)c4ccccc4)C(C)=C1C3(C)C)[C@]1(OC(C)=O)CO[C@@H]1C[C@@H]2O", "GI50", "10.2 µM (inactive)"]
]}

Item NCCN1CC2CCC(CC2)C1 has what recorded GI50?
> 10 µM (inactive)

Fill blank: measured GI50 of the compound O=C(O)c1ccc(/N=N/c2cc(S(=O)(=O)O)c3cccnc3c2O)cc1 is ____.
> 100 µM (inactive)

---

system: CCRF-CEM; assay: NCI tumour cell line growth inhibition, 48 h
The source made the active and inactive calls. Rule as the data show it: active = GI50 up to about 1.1 µM and inactive = higher.
observed property: GI50

{"columns": ["compound", "GI50"],
 "data": [
  ["Cc1ccc(O)cc1.Cc1cccc(O)c1.Cc1ccccc1O", "18.7 µM (inactive)"]
]}

Please give the measured GI50 for this compound: COC(=O)C(CNC(=O)/C=C/c1ccc(OC)c(OC)c1)NC(=O)/C=C/c1ccc(OC)c(OC)c1 (stereo not given)
> 100 µM (inactive)

Would you mind telling me what GI50 value was observed for Cc1ccc(C(=O)c2nnc(C(=O)c3ccc(C)cc3)nn2)cc1 ?
18.8 µM (inactive)

Quick one: GI50 for COc1ccc(/C=C/C(=O)c2ccccc2)cc1OC ?
2.53 µM (inactive)

Which GI50 reading was recorded for the compound O=C(CSc1nnc(-c2ccc(/N=C\c3ccc(Cl)cc3)cc2)o1)Nc1cccc(Cl)c1 ?
> 100 µM (inactive)

---

test system: K562; assay: NCI tumour cell line growth inhibition, 48 h
Active and inactive are the calls of the source. No stated cut-off is given here; in the data, active = GI50 up to about 1.1 µM and inactive = higher.
GI50 values by entry

{"columns": ["compound", "GI50"],
 "data": [
  ["CCOC(=O)c1ccc(/N=C/C=C(\\Nc2ccc(C(=O)OCC)cc2)c2ccc3ccccc3c2)cc1", "13.3 µM (inactive)"],
  ["OC(COC(c1ccccc1)(c1ccccc1)c1ccccc1)C(O)CC1SCCS1 (stereo unspecified)", "13.5 µM (inactive)"],
  ["COC(=O)c1sc(=S)sc1SCc1cccc(CSc2sc(=S)sc2C(=O)OC)c1", "79.8 µM (inactive)"],
  ["CC1(C)[C@@H](Cn2ccc(=O)[nH]c2=O)CC[C@@]1(C)CO", "> 100 µM (inactive)"],
  ["CCN1CC2(CO)CCC(OC)C34C5CC6C(OC)CC(O)(C5C6OC)C(O)(C(OC)C23)C14 (stereo unspecified)", "> 375 µM (inactive)"]
]}

Which GI50 is reported for this compound? Cn1c2c(c3ccccc31)CCN1C(=O)C34CCCC3CC21S4 (stereo unspecified)
> 100 µM (inactive)

I have this compound here, O=c1[nH][nH]c(=O)n1CCCCCCn1c(=O)[nH][nH]c1=O , and I need its recorded GI50.
> 100 µM (inactive)

What value of GI50 has been reported for the following compound? NC(=O)c1cc(C2OC(CO)C(O)C2O)nn1-c1ccc([N+](=O)[O-])cc1 (stereo unspecified)
> 100 µM (inactive)

Give its GI50 value. Item: COc1ccc(C2=Nc3c(nc(SC)[nH]c3=O)NC(c3ccccc3)C2)cc1 (stereo unspecified)
25.1 µM (inactive)

// query GI50 value for entry O=C(O)CCC(NC(=O)c1ccc(Nc2nc3ccc(C(F)(F)F)cc3nc2-c2ccccc2)cc1)C(=O)O (stereo unspecified)
29.6 µM (inactive)

Field request: GI50 | item: CC1(C)C2CC(O)C1(C)CC2=O (stereo unspecified)
> 100 µM (inactive)

---

Below, each of the compounds is paired with its reported GI50 value.
test system: U-251; experiment: NCI tumour cell line growth inhibition, 48 h
Active and inactive are the calls of the source. Cut-off read from the data, not from the text of the source: active = GI50 up to about 1.1 µM and inactive = higher.

// below: answered compounds
{"columns": ["compound", "target system", "result"],
 "data": [
  ["Cc1ccc(NC(Nc2ccc(C)cc2C)=C(/C=C(\\Cl)[N+](=O)[O-])[N+](=O)[O-])c(C)c1", "U-251", "11.5 µM (inactive)"],
  ["C/C(=N\\Nc1ccc([N+](=O)[O-])cc1[N+](=O)[O-])c1sc(-n2nc(-c3ccccc3)cc2-c2ccccc2)nc1C", "U-251", "42.7 µM (inactive)"],
  ["O=C1c2c(F)c(F)c(F)c(F)c2SC2=Nc3cccc4cccc(c34)N12", "U-251", "3.78 µM (inactive)"],
  ["COc1cc2c(cc1OC)[C@@](C)(C(O)C(O)C(C)(C)O)NCC2 (stereo partly specified)", "U-251", "> 100 µM (inactive)"],
  ["NC1=NN(c2ccccc2)C(=O)C1C(=O)C(=O)Nc1ccccc1 (stereo unspecified)", "U-251", "> 100 µM (inactive)"]
]}

Okay, now this compound:
I'm curious: which GI50 was measured for O=C(c1ccccc1)c1ccc2c(c1)N=C(c1ccc(Cl)c(Cl)c1)CC(c1ccc3ccccc3c1)N2 (stereo unspecified) tested on U-251?
> 100 µM (inactive)

---

tested on: Malme-3M; assay: NCI tumour cell line growth inhibition, 48 h
The source made the active and inactive calls. Cut-off read from the data, not from the text of the source: active = GI50 up to about 1.1 µM and inactive = higher.
Output constraint: value belongs to true for active, false for inactive

Reference set (4 entries):
{"columns": ["compound", "cat"],
 "data": [
  ["S=C(Nc1ccccc1)N(/N=C/C=C/c1ccccc1)c1nnc(-c2ccccc2)c(-c2ccccc2)n1", "false"],
  ["O=C1CCc2c3c(c4c([nH]c5ccccc54)c2CC1)C(=O)NC3=O", "false"],
  ["O=C1CCc2cc3c(cc21)CC1(Cc2ccccc2C1)C3", "false"],
  ["CCCOc1ccc(-c2nc(-c3ccc(/N=C/c4ccc(N(CCOS(C)(=O)=O)CCOS(C)(=O)=O)cc4C)cc3)cs2)cc1", "false"]
]}

What was the test verdict on C=CCC1OC(C)(C)Oc2ccc(OCOCCOC)cc21 (configuration not stated) ?
false

Could you check what this test reported for O=C1/C(=C\c2ccccc2)CN(C(=O)CCN2CCCCC2)C/C1=C/c1ccccc1 ?
false

Returns: the outcome recorded for Cc1cccc(-c2cc(O)c3ccc(C)nc3n2)c1 in this assay.
true

---

system: HOP-92; assay: NCI tumour cell line growth inhibition, 48 h
Activity calls are given as the source filed them. No stated cut-off is given here; in the data, active = GI50 up to about 1.1 µM and inactive = higher.
observed property: GI50

{"columns": ["molecule", "GI50"],
 "data": [
  ["CCCCNC(=O)C1C(=O)N(CCCC)C(=O)/C1=N\\N (stereo not drawn)", "> 100 µM (inactive)"],
  ["Cc1ccc(C(=O)c2nnc(C(=O)c3ccc(C)cc3)nn2)cc1", "32.1 µM (inactive)"]
]}

Here is another molecule to look at.
Recorded GI50 for COC(=O)[C@@]12CC(C(C)C)[C@H]3CC(C(=O)C=C1OC)[C@H]32 (stereo partly drawn) with HOP-92, please?
> 100 µM (inactive)

---

tested on: NCI-H522; experiment: NCI tumour cell line growth inhibition, 48 h
Activity calls are given as the source filed them. No stated cut-off is given here; in the data, active = GI50 up to about 1.1 µM and inactive = higher.
Hi there, use one of these labels in your reply, thanks! active, inactive

Worked examples follow.
{"columns": ["molecule", "target system", "cat"],
 "data": [
  ["NCCSC(c1ccccc1)c1ccccc1", "NCI-H522", "inactive"],
  ["Cc1ccc(C(=O)N(C2CCCCC2)C2CCCCC2)cc1/N=N/N(C)C", "NCI-H522", "inactive"]
]}

Test call for this molecule, please: CC(=O)Nc1ccccc1C=C1c2ccccc2-c2ccccc21
inactive

Answer briefly: the call reported for CN(C)CCC(=O)N1C/C(=C\c2ccc(Cl)c(Cl)c2)C(=O)/C(=C/c2ccc(Cl)c(Cl)c2)C1 in this assay.
active

---

// values below are reported GI50
test system: SF-268; assay: NCI tumour cell line growth inhibition, 48 h
Calls of active or inactive are those of the source. Rule as the data show it: active = GI50 up to about 1.1 µM and inactive = higher.

{"columns": ["molecule", "GI50"],
 "data": [
  ["N#CCC1COc2ccccc2O1 (centres undefined)", "> 10 µM (inactive)"],
  ["CCCCCCCCC(C)CCCCCCCCC(=O)OCC(COP(=O)([O-])OCC[N+](C)(C)C)OC(=O)CCCCCCCCC(C)CCCCCCCC (centres undefined)", "> 100 µM (inactive)"],
  ["Cc1csc(N/C=C2\\C(=O)Oc3ccccc3C2=O)n1", "26.5 µM (inactive)"],
  ["N#CN1C2CCC1CC(=O)C2", "> 100 µM (inactive)"],
  ["CCOC(=O)CC(=O)Nc1c(C(=O)OCC)sc2nc(SC)nc(Nc3ccc(OC)c(OC)c3)c12", "3.19 µM (inactive)"]
]}

For the molecule shown here, COC(=O)C1(O)CC(=O)CCC1c1ccc(OC)cc1 (centres undefined) , give the reported GI50.
> 100 µM (inactive)

---

tested on: NCI-H522; test: NCI tumour cell line growth inhibition, 48 h
The source made the active and inactive calls. Rule as the data show it: active = GI50 up to about 1.1 µM and inactive = higher. Residues, ends and D or L forms follow the SMILES beside them. *: point of attachment. Pentanoyl = CCCCC(=O)*; Boc = CC(C)(C)OC(=O)*
Outcome field: choose from 1.0 = active, 0.0 = inactive

A selection of reference data follows.
{"columns": ["compound", "cat"],
 "data": [
  ["CCOC(=O)/C(=C\\c1c(C)[nH]c2ccccc12)P(=O)(OCC)OCC", 0.0],
  ["O=C1CCc2cc3c(cc21)CC1(Cc2ccccc2C1)C3", 0.0],
  ["Cn1c2c(cc(-c3ccccc3)c1=O)COc1ccccc1-2", 0.0],
  ["CCOC(=O)c1ccc(/N=C/C=C(\\Nc2ccc(C(=O)OCC)cc2)c2ccc3ccccc3c2)cc1", 0.0],
  ["CCCCC(=O)Oc1ccc(CC(NC(=O)OC(C)(C)C)C(=O)NC(C)C(=O)NC(Cc2ccccc2)C(=O)NCC(N)=O)cc1 (stereo not drawn) (Boc-Y(Pentanoyl)AFG-NH2; configuration not given here)", 0.0],
  ["C[C@H](OCc1ccccc1)C(=O)N1CCS(=O)(=O)N2CCC[C@@H]2C1=O", 0.0]
]}

Please share the test call associated with COc1cc(C2S/C(=C/c3ccccc3)C(=O)N2c2cc(Cl)ccc2Cl)cc(OC)c1OC (stereo not drawn) .
0.0

Which outcome did this test record for the compound Cc1cccc(/C=N/NC(=S)NC(C)(C)C)n1 ?
0.0

// param item: O=[N+]([O-])c1ccc2c3ccccc3[s+]([O-])c2c1 (stereo not drawn) ; yields the recorded call
0.0

Can you look up the reported call for c1ccc(P(CCP(c2ccccn2)c2ccccn2)c2ccccc2)cc1 for me?
1.0

Please let me know the test result on file for CC(=O)C1=CCC2c3[nH]c4ccccc4c3CCN2C1 (stereo not drawn) .
0.0

Query: recorded result category for COc1cc(/C=N/N=C(\N)NO)c([N+](=O)[O-])cc1OC in this test
0.0

In this assay, the call recorded for CC(=O)Nc1ncc2c(n1)-c1ccccc1OC2 was what?
0.0
